The reported numbers originate from paper PMC11344719.

# STUDY_SYSTEM: VEGF-A165/NRP-1 complex (Homo sapiens, UniProt O14786)
# Construct: Abcam (biotinylated VEGF-A165)
# Sequence (O14786 22-641 limits assumed, one chain of several): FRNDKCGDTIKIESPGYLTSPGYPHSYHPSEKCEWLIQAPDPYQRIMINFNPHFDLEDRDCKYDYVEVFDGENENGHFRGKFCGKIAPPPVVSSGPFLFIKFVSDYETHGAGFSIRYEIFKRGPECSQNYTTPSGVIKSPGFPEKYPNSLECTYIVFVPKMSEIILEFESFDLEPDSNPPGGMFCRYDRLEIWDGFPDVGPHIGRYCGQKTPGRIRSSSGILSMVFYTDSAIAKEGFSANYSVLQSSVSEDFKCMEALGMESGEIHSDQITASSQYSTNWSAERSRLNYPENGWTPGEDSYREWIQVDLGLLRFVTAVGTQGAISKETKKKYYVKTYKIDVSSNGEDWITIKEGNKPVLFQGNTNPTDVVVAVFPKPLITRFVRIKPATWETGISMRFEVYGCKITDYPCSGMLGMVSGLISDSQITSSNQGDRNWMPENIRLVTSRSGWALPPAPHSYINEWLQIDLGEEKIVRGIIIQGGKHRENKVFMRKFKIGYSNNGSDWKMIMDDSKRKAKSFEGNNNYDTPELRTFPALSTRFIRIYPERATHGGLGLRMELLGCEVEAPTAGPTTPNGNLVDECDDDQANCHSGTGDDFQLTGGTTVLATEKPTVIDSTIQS
# EXPERIMENTAL_DETAILS: competitive ELISA: inhibition of (bt)-VEGF-A165 binding to NRP-1
# CONDITION_CONTEXT: recombinant human NRP-1; mean ± SD of three independent experiments; tested in the concentrations range 100–3.12 μM
Square brackets hold non-standard residues; d marks the D form. Peptide text beside a SMILES is read from it. hArg = N=C(N)NCCCC[C@H](N)C(=O)O; Agp = N=C(N)NC[C@H](N)C(=O)O; Dab = NCC[C@H](N)C(=O)O; Dap = NC[C@H](N)C(=O)O
MEASUREMENT_NAME: IC50 (µM)

A. N=C(N)NCCCC[C@H](N)C(=O)NCCCC[C@H](N)C(=O)N[C@@H](CN)C(=O)N1CCC[C@H]1C(=O)N[C@@H](CNC(=N)N)C(=O)O [Compound 7, Lys(Har)-Dap-Pro-Agp] (H-K(hArg)[Dap]P[Agp]-OH)
B. N=C(N)NCCCC[C@H](NC(=O)[C@@H]1CCCN1C(=O)[C@H](CCN)NC(=O)[C@@H](N)CCCCNC(=O)[C@@H](N)CCCCNC(=N)N)C(=O)O [Compound 4, Lys(Har)-Dab-Pro-Har] (H-K(hArg)[Dab]P[hArg]-OH)
Q: Which has the smaller recorded IC50, A or B ? Answer by stating the label of the chosen item.
Result: B
(B: 14.3 µM, A: 148 µM)
